# maps each entry to its pEC50
Test system: KCNQ channels
Experiment Notes: Thallium flux assay for KCNQ channel openers
Assay type: cell-based
Test Conditions: thallium flux, 10 point concentration series; HEK-293 cells stably transfected with a KCNQ family member
pEC50: −log10 of the molar value.

# Compound, Target Entity, pEC50
measured = [
    ("CC(NC(=O)c1sc(CCN2CCC(O)CC2)nc1C(F)(F)F)c1cccc(OC(F)(F)F)c1 (stereo not shown)", "KCNQ channels", "4.70 to 6.00"),
    ("CC(NC(=O)c1sc(CCNC2CCCC2)nc1C(F)(F)F)c1cccc(OC(F)(F)F)c1 (stereo not shown)", "KCNQ channels", "4.70 to 6.00"),
    ("CC(NC(=O)c1sc(CCN(C)CCN(C)C)nc1C(F)(F)F)c1cccc(C(F)(F)F)c1 (stereo not shown)", "KCNQ channels", "4.70 to 6.00"),
    ("CC(NC(=O)c1sc(CCN2CCCCC2)nc1C(F)(F)F)c1cccc(C(F)(F)F)c1 (stereo not shown)", "KCNQ channels", "4.70 to 6.00"),
    ("CC(NC(=O)c1sc(CCN2CCN(C)CC2)nc1C(F)(F)F)c1cccc(OC(F)(F)F)c1 (stereo not shown)", "KCNQ channels", "4.70 to 6.00"),
    ("CC(NC(=O)c1sc(CCN2CCCCC2)nc1C(F)(F)F)c1cccc(OC(F)(F)F)c1 (stereo not shown)", "KCNQ channels", "6.00 to 7.30"),
    ("COCCN(CCOC)CCc1nc(C(F)(F)F)c(C(=O)NC(C)c2cccc(C(F)(F)F)c2)s1 (stereo not shown)", "KCNQ channels", "4.70 to 6.00"),
    ("CCCN(CCc1nc(C(F)(F)F)c(C(=O)NC(C)c2cccc(OC(F)(F)F)c2)s1)CC1CC1 (stereo not shown)", "KCNQ channels", "> 7.30"),
    ("CCC(CC)NCCc1nc(C(F)(F)F)c(C(=O)NC(C)c2cccc(C(F)(F)F)c2)s1 (stereo not shown)", "KCNQ channels", "4.70 to 6.00"),
    ("CC(NC(=O)c1sc(C(O)CN2CCCC2)nc1C(F)(F)F)c1cccc(C(F)(F)F)c1 (stereo not shown)", "KCNQ channels", "6.00 to 7.30"),
    ("CC(NC(=O)c1sc(CCN2CCC(O)CC2)nc1C(F)(F)F)c1cccc(C(F)(F)F)c1 (stereo not shown)", "KCNQ channels", "4.70 to 6.00"),
    ("C[C@H](NC(=O)c1sc(CCNCc2ccco2)nc1C(F)(F)F)c1cccc(-c2cccnc2)c1", "KCNQ channels", "4.70 to 6.00"),
    ("CC(NC(=O)c1sc(CCN2CCCC2)nc1C(F)(F)F)c1cccc(C(F)(F)F)c1 (stereo not shown)", "KCNQ channels", "4.70 to 6.00"),
]

----------
Test system: KCNQ channels
Experiment Notes: Thallium flux assay for KCNQ channel openers
Type: cell-based
Test Conditions: thallium flux, 10 point concentration series; HEK-293 cells stably transfected with a KCNQ family member
pEC50: −log10 of the molar value.
# maps each entry to its pEC50
Measured Quantity: pEC50

# Compound, Target Entity, Measured Quantity, Test Result
measured = [
    ("CC(NC(=O)c1sc(C(O)CN(C)Cc2ccco2)nc1C(F)(F)F)c1cccc(C(F)(F)F)c1 (centres unmarked)", "KCNQ channels", "pEC50", "6.00 to 7.30"),
    ("CC(NC(=O)c1sc(CCN2CCCCC2)nc1C(F)(F)F)c1cccc(N(C)C)c1 (centres unmarked)", "KCNQ channels", "pEC50", "4.70 to 6.00"),
    ("CCCN(CC1CC1)CC(O)c1nc(C(F)(F)F)c(C(=O)NC(C)c2cccc(OC(F)(F)F)c2)s1 (centres unmarked)", "KCNQ channels", "pEC50", "6.00 to 7.30"),
    ("CCCN(CCc1nc(C(F)(F)F)c(C(=O)NC(C)c2cccc(C(F)(F)F)c2)s1)CC1CC1 (centres unmarked)", "KCNQ channels", "pEC50", "> 7.30"),
    ("CC(NC(=O)c1sc(CCN2CCOCC2)nc1C(F)(F)F)c1cccc(-c2cccnc2)c1 (centres unmarked)", "KCNQ channels", "pEC50", "4.70 to 6.00"),
    ("CCN(CC)CCc1nc(C(F)(F)F)c(C(=O)NC(C)c2cccc(OC(F)(F)F)c2)s1 (centres unmarked)", "KCNQ channels", "pEC50", "6.00 to 7.30"),
    ("CC(NC(=O)c1sc(CCN2CCCC2)nc1C(F)(F)F)c1cccc(N(C)C)c1 (centres unmarked)", "KCNQ channels", "pEC50", "4.70 to 6.00"),
    ("CC(NC(=O)c1sc(CCN(C)CCN(C)C)nc1C(F)(F)F)c1cccc(OC(F)(F)F)c1 (centres unmarked)", "KCNQ channels", "pEC50", "4.70 to 6.00"),
]
